Biological target: Carnitine O-palmitoyltransferase 1, liver isoform (Homo sapiens)
Assay: SUPPLEMENTARY: Inhibition of Carnitine palmitoyltransferase 1, liver isoform
valueKind: IC50 (nM)

Reference set (3 entries):
| mol | tgt | readoutUnit | IC50 |
| --- | --- | --- | --- |
| COc1ccc(Cl)cc1CN1C(=O)C(C)(C)c2ccc(C(=O)Nc3ccc(C(=O)O)cc3)cc21 | Carnitine O-palmitoyltransferase 1, liver isoform (Homo sapiens) | nM | 67.1 |
| COc1cccc2c1CCN(C(=O)[C@H]1CCCCN1C(=O)COc1ccccc1)C2 | Carnitine O-palmitoyltransferase 1, liver isoform (Homo sapiens) | nM | 219 |
| CC(=O)Nc1cccc(-c2n[nH]c([C@H]3CCCCN3C(=O)COc3ccccc3)n2)c1 | Carnitine O-palmitoyltransferase 1, liver isoform (Homo sapiens) | nM | 53.7 |

[1] COc1ccc(Cl)cc1S(=O)(=O)N1COc2ccc(C(=O)Nc3nc(CC(=O)O)cs3)cc21
[2] CCOC(=O)c1cncc(-c2noc([C@H]3CCCCN3C(=O)COc3ccccc3)n2)c1
[3] COc1ccc(Cl)cc1S(=O)(=O)N1COc2ccc(C(=O)Nc3ccc(CC(=O)O)cc3)cc21
Rank items: key IC50, increasing. # list labels per requested ordering 1, 2, 3
(1: 53.3 nM, 2: 78.6 nM, 3: 159 nM)

----------
Target: Carnitine O-palmitoyltransferase 1, liver isoform (Rattus norvegicus)
Sequence (P32198 whole entry, canonical isoform): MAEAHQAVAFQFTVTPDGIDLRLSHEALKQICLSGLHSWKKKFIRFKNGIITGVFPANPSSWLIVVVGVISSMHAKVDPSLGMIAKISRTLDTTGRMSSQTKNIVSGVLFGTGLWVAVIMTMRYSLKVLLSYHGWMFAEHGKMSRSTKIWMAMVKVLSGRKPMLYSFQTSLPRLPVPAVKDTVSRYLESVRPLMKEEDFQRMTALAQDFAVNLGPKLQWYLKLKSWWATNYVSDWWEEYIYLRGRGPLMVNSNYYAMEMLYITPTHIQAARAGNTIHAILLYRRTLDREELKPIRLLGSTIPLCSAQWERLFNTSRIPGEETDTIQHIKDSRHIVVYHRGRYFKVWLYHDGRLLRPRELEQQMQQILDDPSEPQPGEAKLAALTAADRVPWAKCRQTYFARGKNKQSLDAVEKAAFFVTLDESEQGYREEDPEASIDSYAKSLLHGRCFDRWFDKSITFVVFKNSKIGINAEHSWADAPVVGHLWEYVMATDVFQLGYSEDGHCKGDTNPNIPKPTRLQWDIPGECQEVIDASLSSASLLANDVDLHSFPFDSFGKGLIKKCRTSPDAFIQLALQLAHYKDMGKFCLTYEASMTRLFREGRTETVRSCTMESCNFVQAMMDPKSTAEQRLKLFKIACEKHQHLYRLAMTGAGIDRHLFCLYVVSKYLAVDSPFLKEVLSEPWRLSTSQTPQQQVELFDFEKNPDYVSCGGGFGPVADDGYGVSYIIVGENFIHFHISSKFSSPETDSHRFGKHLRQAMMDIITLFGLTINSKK
Assay: SUPPLEMENTARY: Inhibition of Carnitine palmitoyltransferase 1, liver isoform
pIC50: −log10 of the molar value.
valueKind: pIC50

Reference set (3 entries):
| mol | pIC50 |
| --- | --- |
| O=C(Nc1ccc(C(=O)O)c(F)c1)c1ccc2c(c1)N(S(=O)(=O)c1cccc(C(F)(F)F)c1)CCC2 | 7.13 |
| COc1ccc(Cl)cc1S(=O)(=O)N(C)c1cc(C(=O)Nc2nc(CC(=O)O)cs2)cc2c1OCCO2 | 6.96 |
| Cc1cc(C)cc(S(=O)(=O)n2ccc3ccc(C(=O)Nc4ccc(C(=O)O)cc4)cc32)c1 | 7.54 |

[A] O=C(COc1ccccc1)N1CCCC[C@@H]1c1nc(-c2ccc(O)cc2)no1
[B] O=C1COc2ccc(-c3n[nH]c([C@H]4CCCCN4C(=O)COc4ccccc4)n3)cc2N1
[C] N#Cc1cccc(-c2n[nH]c([C@H]3CCCCN3C(=O)COc3ccccc3)n2)c1
Arrange the 3 compounds from largest to smallest pIC50. # list labels per requested ordering B, A, C
(B: 7.21, A: 6.91, C: 6.66)

----------
Assay: SUPPLEMENTARY: PAMPA permeability assay
Assay type: physicochemical
Settings: read-out: Permeability
valueKind: Papp (nm/s)

| mol | readoutUnit | Papp |
| --- | --- | --- |
| COc1ccc(Cl)cc1S(=O)(=O)N1CCOc2ncc(C(=O)Nc3ccccc3)cc21 | nm/s | 43.8 |
| O=C(COc1ccccc1)N1CCCC[C@@H]1c1noc(-c2ccc3cccnc3n2)n1 | nm/s | 54.3 |
| O=C(COc1ccccc1)N1CCCC[C@@H]1c1noc(C2CCCC2)n1 | nm/s | 43.8 |

----------
Experiment: SUPPLEMENTARY: Lipophilicity (log D) Determination by high-throughput shake-flask
Assay type: physicochemical
Conditions: octanol/water
valueKind: logD

Reference set (5 entries):
| mol | logD |
| --- | --- |
| Cc1cc(C)cc(S(=O)(=O)c2nn(C)c3ccc(C(=O)Nc4ccc(C(=O)O)cc4)cc23)c1 | 2.21 |
| COc1ccc(Cl)cc1S(=O)(=O)N1COCc2ccc(C(=O)Nc3ccc(CC(=O)O)cc3)cc21 | -0.23 |
| NC(=O)c1cncc(-c2noc([C@H]3CCCCN3C(=O)COc3ccccc3)n2)c1 | 1.88 |
| O=C(COc1ccccc1)N1CCCC[C@@H]1c1nc(-c2ccc(S(=O)(=O)NCCO)cc2)no1 | 2.29 |
| CCN(c1cc(C(=O)Nc2ncc(CC(=O)O)s2)cc2c1OCO2)S(=O)(=O)c1cc(Cl)ccc1OC | 2.74 |

[I] O=C(COc1ccccc1)N1CCCC[C@@H]1c1nc(-c2ccc3[nH]c(=O)[nH]c3c2)no1
[II] COc1ccc(Cl)cc1S(=O)(=O)N1CCCCc2ccc(C(=O)Nc3ccc(C(=O)O)cc3)cc21
Kindly identify which of I and II has the larger recorded logD value. Please identify the chosen entry by its label. I

----------
Target: Carnitine O-palmitoyltransferase 1, liver isoform (Homo sapiens, UniProt P50416)
Sequence (P50416 whole entry, canonical isoform): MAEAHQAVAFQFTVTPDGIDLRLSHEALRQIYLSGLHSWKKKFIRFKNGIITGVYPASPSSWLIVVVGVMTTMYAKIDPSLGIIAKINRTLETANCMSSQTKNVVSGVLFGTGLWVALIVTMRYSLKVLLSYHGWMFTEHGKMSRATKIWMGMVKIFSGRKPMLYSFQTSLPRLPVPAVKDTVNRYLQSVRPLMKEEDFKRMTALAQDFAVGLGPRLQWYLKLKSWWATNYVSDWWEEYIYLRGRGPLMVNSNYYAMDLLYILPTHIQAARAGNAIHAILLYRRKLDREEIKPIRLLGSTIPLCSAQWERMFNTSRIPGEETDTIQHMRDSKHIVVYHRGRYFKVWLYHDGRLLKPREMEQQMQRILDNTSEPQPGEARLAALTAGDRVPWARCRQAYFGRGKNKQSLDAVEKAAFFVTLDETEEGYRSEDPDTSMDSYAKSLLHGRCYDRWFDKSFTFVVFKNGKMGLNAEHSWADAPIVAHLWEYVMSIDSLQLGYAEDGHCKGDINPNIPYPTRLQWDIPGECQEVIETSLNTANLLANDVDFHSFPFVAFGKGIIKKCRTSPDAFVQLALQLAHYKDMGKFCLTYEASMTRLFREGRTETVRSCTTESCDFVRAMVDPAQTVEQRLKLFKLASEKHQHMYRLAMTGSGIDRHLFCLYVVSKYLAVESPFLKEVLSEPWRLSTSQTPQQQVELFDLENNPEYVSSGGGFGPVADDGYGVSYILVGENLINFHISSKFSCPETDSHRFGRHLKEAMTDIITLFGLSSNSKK
Experiment: SUPPLEMENTARY: Inhibition of Carnitine palmitoyltransferase 1, liver isoform
pIC50: −log10 of the molar value.
valueKind: pIC50

Reference set (5 entries):
| mol | measuredValue |
| --- | --- |
| O=C(Nc1ccc(C(=O)O)c(Cl)c1)c1ccc2c(c1)N(S(=O)(=O)c1cc(Cl)cc(Cl)c1)CC2 | 7.04 |
| Nc1cncc(-c2nc([C@H]3CCCCN3C(=O)COc3ccccc3)no2)c1 | 6.84 |
| CN1CCN(C(=O)COc2ccccc2)[C@@H](c2nc(-c3cccc(C(F)(F)F)c3)n[nH]2)C1 | 7.43 |
| COc1ccc(Cl)cc1S(=O)(=O)n1ccc2ccc(C(=O)Nc3ccc(CC(=O)O)cc3)cc21 | 6.69 |
| O=C1CN(c2cccc(-c3nc([C@H]4CCCCN4C(=O)COc4ccccc4)no3)c2)C(=O)N1 | 7.19 |

[A] O=C(COc1ccccc1)N1CCCC[C@@H]1c1nc(-c2ccc([N+](=O)[O-])o2)no1
[B] N#Cc1cncc(-c2noc([C@H]3CCCCN3C(=O)COc3ccccc3)n2)c1
Kindly identify which of A and B has the larger recorded pIC50 value. Please identify the chosen entry by its label. A
(A: 7.17, B: 6.64)

----------
Biological target: Carnitine O-palmitoyltransferase 2, mitochondrial (Homo sapiens)
Sequence (P23786 whole entry): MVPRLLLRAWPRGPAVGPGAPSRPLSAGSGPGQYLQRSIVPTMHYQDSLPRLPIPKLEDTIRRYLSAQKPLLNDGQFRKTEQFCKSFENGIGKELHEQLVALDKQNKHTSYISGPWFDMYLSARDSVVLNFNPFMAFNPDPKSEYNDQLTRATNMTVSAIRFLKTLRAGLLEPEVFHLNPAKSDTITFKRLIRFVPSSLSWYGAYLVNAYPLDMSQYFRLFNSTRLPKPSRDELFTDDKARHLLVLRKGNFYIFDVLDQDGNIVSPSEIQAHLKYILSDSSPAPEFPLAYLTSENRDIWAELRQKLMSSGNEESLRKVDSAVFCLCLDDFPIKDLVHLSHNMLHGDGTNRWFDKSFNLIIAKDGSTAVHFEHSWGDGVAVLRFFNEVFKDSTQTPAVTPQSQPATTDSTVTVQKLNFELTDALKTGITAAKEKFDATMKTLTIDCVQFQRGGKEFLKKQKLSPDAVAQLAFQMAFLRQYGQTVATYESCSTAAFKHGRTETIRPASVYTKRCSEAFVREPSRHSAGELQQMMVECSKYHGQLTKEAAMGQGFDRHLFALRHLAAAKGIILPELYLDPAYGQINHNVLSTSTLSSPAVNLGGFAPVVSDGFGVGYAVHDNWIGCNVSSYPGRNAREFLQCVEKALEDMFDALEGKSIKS
pIC50: −log10 of the molar value.
valueKind: pIC50

Reference set (2 entries):
| compound | pIC50 |
| --- | --- |
| COC1CCC(c2nc([C@H]3CCCCN3C(=O)COc3ccccc3)no2)CC1 (stereo not given in full) | 4.11 |
| O=C([C@H]1CCCCN1C(=O)COc1ccccc1)N1CCN(c2cccc(Cl)c2)CC1 | 6.26 |

[A] COc1ccc(Cl)cc1S(=O)(=O)N1CCCCc2ccc(C(=O)Nc3ccc(C(=O)O)c(F)c3)cc21
[B] O=C(COc1ccccc1)N1CCCC[C@@H]1c1csc(-c2ccc(C(F)(F)F)cn2)n1
[C] COc1ccc(Cl)cc1S(=O)(=O)N1CCOc2c(Cl)cc(C(=O)Nc3ccc(C(=O)O)cc3)cc21
Arrange the 3 compounds from largest to smallest pIC50. # list labels per requested ordering C, A, B
(C: 6.24, A: 4.55, B: 4.30)

----------
pIC50: −log10 of the molar value.
Consider molecules characterized by their pIC50 with Carnitine O-palmitoyltransferase 2, mitochondrial (Homo sapiens, UniProt P23786).

Would you kindly share the measured pIC50 for `O=C(COc1ccccc1)N1CCCC[C@@H]1c1nc(-c2ccc3[nH]ncc3c2)n[nH]1` ? 4.86

Same read-out for `COc1ccc(Cl)cc1CN1C(=O)C2(CC2)c2ccc(C(=O)Nc3nc(CC(=O)O)cs3)cc21` ? < 4.00

Same read-out for `O=C(COc1ccccc1)N1CCCC[C@@H]1c1nc(-c2ccc(F)c(F)c2)n[nH]1` ? < 4.00

----------
Entries and their measured pIC50 follow.
Target: Carnitine O-palmitoyltransferase 1, muscle isoform (Homo sapiens)
Sequence (Q92523 whole entry, canonical isoform): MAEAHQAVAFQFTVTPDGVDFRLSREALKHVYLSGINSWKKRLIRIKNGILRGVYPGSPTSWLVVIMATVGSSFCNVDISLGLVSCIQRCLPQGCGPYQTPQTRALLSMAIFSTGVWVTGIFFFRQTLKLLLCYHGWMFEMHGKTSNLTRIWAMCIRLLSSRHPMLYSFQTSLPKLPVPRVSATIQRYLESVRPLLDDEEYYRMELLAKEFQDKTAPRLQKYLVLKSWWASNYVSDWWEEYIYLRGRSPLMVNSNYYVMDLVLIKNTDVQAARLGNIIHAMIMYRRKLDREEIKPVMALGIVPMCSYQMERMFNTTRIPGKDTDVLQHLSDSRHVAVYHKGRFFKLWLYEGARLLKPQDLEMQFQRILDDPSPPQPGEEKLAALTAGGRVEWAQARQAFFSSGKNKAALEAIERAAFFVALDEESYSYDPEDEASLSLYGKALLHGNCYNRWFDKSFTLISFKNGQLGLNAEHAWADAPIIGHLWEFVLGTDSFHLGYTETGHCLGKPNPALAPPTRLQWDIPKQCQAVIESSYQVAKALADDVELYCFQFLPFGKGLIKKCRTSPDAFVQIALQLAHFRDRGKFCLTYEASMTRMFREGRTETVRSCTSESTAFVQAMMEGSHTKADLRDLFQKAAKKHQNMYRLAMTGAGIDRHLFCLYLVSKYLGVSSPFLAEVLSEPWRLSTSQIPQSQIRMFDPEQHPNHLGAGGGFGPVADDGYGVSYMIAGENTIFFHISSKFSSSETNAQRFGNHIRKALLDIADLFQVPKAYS
Test: SUPPLEMENTARY: Inhibition of Carnitine palmitoyltransferase 1, muscle isoform
pIC50: −log10 of the molar value.

Reference set (2 entries):
| mol | valueKind | measuredValue |
| --- | --- | --- |
| O=C(COc1ccccc1)N1CCCC[C@@H]1c1noc(-c2ccc3cnccc3n2)n1 | pIC50 | < 4.00 |
| O=C(COc1ccccc1)N1CCCC[C@@H]1c1noc(C2CCCCC2)n1 | pIC50 | < 4.00 |

Would you kindly share the measured pIC50 for `CC(=O)Nc1cccc(-c2nc([C@H]3CCCCN3C(=O)COc3ccccc3)no2)c1` ? < 4.00
